tested on: PPARg:RXRa 90nM:30nM, anti-RXR (NR concentration 90 nM, RXRa partner concentration 30 nM); experiment: PBM binding z-score (relative to random genomic background probes); higher = stronger binding; sequences stand for … in GC…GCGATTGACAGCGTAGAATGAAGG
# PBM binding z-score binned as low value: < 1; medium value: ≥ 1 and < 4; high value: ≥ 4

Which class holds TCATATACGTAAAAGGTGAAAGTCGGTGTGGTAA ? high value

Place this sequence in its band: CCTACTGGGCCGAAGGTCATTGATTCCAATGCTC high value

Hi, small favor: classify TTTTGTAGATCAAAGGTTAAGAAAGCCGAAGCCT by its PBM binding z-score when you get a moment. high value

Please report the category associated with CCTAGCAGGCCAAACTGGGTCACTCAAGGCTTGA , nothing else. low value

Class (by measured PBM binding z-score) for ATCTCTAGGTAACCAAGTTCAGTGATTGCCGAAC low value

Given TAGCCTAGGTCTTGCGGGCCAGTATAGTGTCGGC , name the class its PBM binding z-score places it in. low value

Categorize the following entry: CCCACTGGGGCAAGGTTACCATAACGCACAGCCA high value

Into which bin does this sequence go? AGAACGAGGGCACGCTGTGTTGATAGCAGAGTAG medium value
